Experiment: NFAT Signaling Pathway (AID 444);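 note: carbachol stimulus at about its EC50 of 1 µM final; % is set by controls: 0 for no effect and ±100 for the full control effect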
Details: Jurkat NFAT-bla M1, carbachol, beta-lactamase ratio, 5 h; at 17.2 µM (top of the series) unless noted
Method: NCGC Assay Overview: The nuclear factor of activated T cells (NFAT) family of transcription factors has been found primarily in most immune system cells and some other non-immune cells. NFAT plays the immunomodulatory role, primarily in T-cell activation and differentiation. […] NCGC Assay Protocol Summary: The cells were prepared in RPMI 1640 medium containing 0.1% dialyzed FBS and 25 mM HEPES at 1.6 x 10^6cell/ml. […] The %Activity was determined from the ratio of 460nm/530nm. […]
Results filed as inconclusive are left out.
quantity kind: activity change, negative = inhibition (%)
Answers are plain numbers, in %.

N#Cc1ccc(-c2cccnc2)nc1SCC(=O)Nc1sc2c(c1C#N)CCC2 = -7.12

Dear reader, for each entry below, please note its activity change, negative = inhibition.
1. COc1ccc2c(c1OC)C(=O)N1c3ccccc3SC21 (stereo unspecified)
2. COC(=O)c1cc(Br)c(=O)n(Cc2ccco2)c1
3. C=CCOc1nc2c(c(=O)n(C)c(=O)n2C)n1Cc1ccc(Cl)cc1
4. O=C(Oc1oc(-c2ccco2)nc1C=Nc1ccccc1)c1ccoc1
5. C/C(CC1(O)C(=O)N(Cc2ccccc2)c2ccccc21)=N\O (stereo unspecified)
6. O=C(CN1C(=O)c2ccccc2S1(=O)=O)NCCSCc1ccco1

A)
1: 6; 2: -14.5; 3: -8.76; 4: -123; 5: 1.97; 6: 8.79

Would you be so kind as to report activity change, negative = inhibition for each listed record?
1. O=C(CN1C2=NCCN2c2ccccc21)N1CCOCC1
2. CSc1nc2[nH]c3c(c2c2nncn12)CC(C)(C)OC3
3. CCn1nc(NC(=O)c2ccco2)c2cc3ccccc3nc21

A)
-2.85
-1.24
5.58

Give activity change, negative = inhibition for each of the items listed below.
1. COc1ccc(C(=O)Cn2c(N3CCCCC3)nc3c2c(=O)n(C)c(=O)n3C)cc1OC
2. CC(=O)OC12CC3CC(C1)C(=NO)C(C3)C2
3. CCOC(=O)C1=C(C)N=C2SC(C)C(=O)N2C1c1cccc(F)c1 (stereo unspecified)

A)
[21, 1.23, 7.16]

For each listed entry, give its activity change, negative = inhibition.
1. CC(=O)C1=C(O)C(=O)N(Cc2cccnc2)C1c1ccccc1Cl (stereo unspecified)
2. CC(=O)Nc1ccc(Oc2ccc3nc(C)[nH]c3c2)cc1
3. CCOC(=O)c1ccc(NCC(O)COc2ccccc2)cc1 (stereo unspecified)

A)
3.26
0.827
-1.02
